B1: library; numbered along this chain (parent)
chain: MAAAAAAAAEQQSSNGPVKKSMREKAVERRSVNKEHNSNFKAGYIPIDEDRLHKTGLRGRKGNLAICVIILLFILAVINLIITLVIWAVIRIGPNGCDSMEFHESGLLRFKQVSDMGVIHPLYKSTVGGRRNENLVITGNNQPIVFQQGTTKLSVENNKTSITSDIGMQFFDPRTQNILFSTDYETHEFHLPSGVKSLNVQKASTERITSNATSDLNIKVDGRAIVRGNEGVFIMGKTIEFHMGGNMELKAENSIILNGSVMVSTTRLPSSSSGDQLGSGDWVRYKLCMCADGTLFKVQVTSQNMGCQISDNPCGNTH

# Variants of: B1
# PROTOCOL DETAILS: SGCB cell-surface expression functional score (HA stain, bin4 vs bin1, normalised to synonymous) (log10 ratio); higher = more cell-surface SGCB (functional)
MEASURED ENDPOINT: SGCB cell-surface expression functional score (log10)
The answer should be written as a number, with no unit following it.

SEQUENCE VARIANT: S270H
REPORTED: 0.54

Consider the additional variant presented here.
IN: Item T301G has what recorded SGCB cell-surface expression functional score (log10)?
OUT: 0.13

Sourced from the supplement of paper PMC10266784
